Target: Phosphatidylinositol 4,5-bisphosphate 3-kinase catalytic subunit delta isoform (Homo sapiens)
Test: Inhibition of PI3Kdelta (unknown origin) at 0.1 uM using phosphatidylinositol as substrate incubated for 30 mins in presence of ATP by HTRF based assay relative to control
Measurement Kind: inhibition (%)

A selection of reference data follows.
N#Cc1cccnc1N1[C@H](c2nc3cccc(Cl)c3c(=O)n2-c2ccccc2)C[C@@H]2CCCC[C@@H]21 | 0
C=CCO[C@@H]1C[C@@H](c2nc3cccc(Cl)c3c(=O)n2-c2ccccc2)N(c2ncnc3[nH]ccc23)C1 | 7
C=C1C[C@@H](c2nc3cccc(Cl)c3c(=O)n2-c2ccccc2)N(c2ncnc3[nH]cnc23)C1 | 75

1 = O=c1c2c(Cl)cccc2nc([C@@H]2CC3(CC3)CN2c2ncnc3[nH]ccc23)n1-c1ccccc1
2 = N#Cc1c(N)ncnc1N1CC2(CC2)C[C@H]1c1nc2cccc(Cl)c2c(=O)n1-c1ccccc1
3 = O=c1c2c(Cl)cccc2nc([C@@H]2C[C@@H]3CCCC[C@@H]3N2c2ncnc3[nH]ncc23)n1-c1ccccc1
4 = O=c1c2c(Cl)cccc2nc([C@@H]2C[C@@H]3CCCC[C@@H]3N2c2nccc(Cl)n2)n1-c1ccccc1
5 = Nc1nc(N2CC3(CC3)C[C@H]2c2nc3cccc(Cl)c3c(=O)n2-c2ccccc2)c2nc[nH]c2n1
# rank_down: sort by inhibition, max first To answer, arrange all of the labels according to the requested order. 2, 5, 1, 4, 3
(2: 83%, 5: 44%, 1: 8%, 4: -2%, 3: -3%)

###

Molecular target: Phosphatidylinositol 4,5-bisphosphate 3-kinase catalytic subunit beta isoform (Homo sapiens, UniProt P42338)
Sequence (P42338 whole entry, looked up, canonical isoform): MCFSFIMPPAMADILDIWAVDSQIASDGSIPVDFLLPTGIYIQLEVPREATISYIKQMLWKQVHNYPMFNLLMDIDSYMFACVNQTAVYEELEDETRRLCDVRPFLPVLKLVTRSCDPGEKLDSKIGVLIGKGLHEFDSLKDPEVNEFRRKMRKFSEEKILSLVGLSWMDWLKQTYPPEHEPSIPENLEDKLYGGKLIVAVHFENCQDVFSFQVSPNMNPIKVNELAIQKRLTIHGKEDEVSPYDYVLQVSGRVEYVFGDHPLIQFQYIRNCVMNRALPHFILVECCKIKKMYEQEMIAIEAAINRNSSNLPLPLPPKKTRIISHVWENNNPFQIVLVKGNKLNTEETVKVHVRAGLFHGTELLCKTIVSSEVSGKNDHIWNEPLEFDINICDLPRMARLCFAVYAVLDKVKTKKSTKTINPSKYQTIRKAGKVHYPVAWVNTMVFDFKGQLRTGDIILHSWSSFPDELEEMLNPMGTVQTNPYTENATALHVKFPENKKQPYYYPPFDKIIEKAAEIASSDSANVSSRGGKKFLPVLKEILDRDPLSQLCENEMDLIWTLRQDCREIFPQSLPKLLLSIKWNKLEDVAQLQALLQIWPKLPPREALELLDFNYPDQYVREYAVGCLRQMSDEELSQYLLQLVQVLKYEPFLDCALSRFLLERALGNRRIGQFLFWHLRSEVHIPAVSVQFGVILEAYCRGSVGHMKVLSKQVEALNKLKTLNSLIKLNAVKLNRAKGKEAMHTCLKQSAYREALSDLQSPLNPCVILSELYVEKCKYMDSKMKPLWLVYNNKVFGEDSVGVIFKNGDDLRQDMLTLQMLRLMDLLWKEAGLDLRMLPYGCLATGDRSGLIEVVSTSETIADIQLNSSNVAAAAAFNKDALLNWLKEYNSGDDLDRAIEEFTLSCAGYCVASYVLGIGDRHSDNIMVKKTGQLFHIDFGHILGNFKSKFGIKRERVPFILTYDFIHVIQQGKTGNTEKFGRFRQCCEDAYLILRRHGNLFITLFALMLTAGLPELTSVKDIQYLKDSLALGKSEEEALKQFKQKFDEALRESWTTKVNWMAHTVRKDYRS
Test: Inhibition of PI3Kbeta (unknown origin) at 0.1 uM relative to control
Measurement Kind: inhibition (%)

C[C@H]1CC[C@@H](c2nc3cccc(Cl)c3c(=O)n2N2CCOCC2)N1c1ncnc(N)c1C#N | 45
C[C@H]1CC[C@@H](c2nc3cccc(Cl)c3c(=O)n2-c2cccc(F)c2)N1c1nc(N)nc2[nH]cnc12 | 43
N#Cc1c(N)ncnc1N1[C@H](c2nc3cccc(Cl)c3c(=O)n2-c2cccc(F)c2)C[C@@H]2CCCC[C@@H]21 | 17
N#Cc1c(N)ncnc1N1[C@H](c2nc3cccc(Cl)c3c(=O)n2N2CCOCC2)C[C@@H]2CCCC[C@@H]21 | 43

I = N#Cc1c(N)ncnc1N1[C@H](c2nc3cccc(Cl)c3c(=O)n2-c2cccnc2)C[C@@H]2CCCC[C@@H]21
II = C[C@H]1CC[C@@H](c2nc3cccc(Cl)c3c(=O)n2-c2ccccc2)N1c1nc(N)nc2[nH]cnc12
III = C[C@H]1CC[C@@H](c2nc3cccc(Cl)c3c(=O)n2-c2cccnc2)N1c1ncnc(N)c1C#N
Rank the items in ascending order with respect to inhibition. To answer, arrange all of the labels according to the requested order. I, III, II

###

Target: Phosphatidylinositol 4,5-bisphosphate 3-kinase catalytic subunit delta isoform (Homo sapiens) (UniProt O00329)
Test: Inhibition of PI3Kdelta (unknown origin) at 0.1 uM using phosphatidylinositol as substrate incubated for 30 mins in presence of ATP by HTRF based assay relative to control
Measurement Kind: inhibition (%)

O=c1c2c(Cl)cccc2nc([C@@H]2C[C@@H]3CCCC[C@@H]3N2c2ncnc3[nH]ccc23)n1-c1ccccc1 | 3
N#Cc1c(N)ncnc1N1CC(F)(F)C[C@H]1c1nc2cccc(Cl)c2c(=O)n1-c1ccccc1 | 60

I = C=CCO[C@@H]1C[C@@H](c2nc3cccc(Cl)c3c(=O)n2-c2ccccc2)N(c2ncnc3[nH]cnc23)C1
II = Cc1ccnc(N2[C@H](c3nc4cccc(Cl)c4c(=O)n3-c3ccccc3)C[C@@H]3CCCC[C@@H]32)n1
Lowest inhibition? choose I or II Your answer should be the label attached to the chosen record. II
(II: -1%, I: 8%)

###

Biological target: Phosphatidylinositol 4,5-bisphosphate 3-kinase catalytic subunit delta isoform (Homo sapiens) (UniProt O00329)
Assay: Inhibition of PI3Kdelta (unknown origin) at 0.01 uM using phosphatidylinositol as substrate incubated for 30 mins in presence of ATP by HTRF based assay relative to control
Measurement Kind: inhibition (%)

C=CCO[C@@H]1C[C@@H](c2nc3cccc(Cl)c3c(=O)n2-c2ccccc2)N(c2nc(N)nc3[nH]cnc23)C1 | 7
N#Cc1c(N)ncnc1N1[C@H](c2nc3cccc(Cl)c3c(=O)n2-c2ccccc2)C[C@@H]2CCCC[C@@H]21 | 10
O=c1c2c(Cl)cccc2nc([C@@H]2C[C@@H]3CCCC[C@@H]3N2c2nccc(Cl)n2)n1-c1ccccc1 | -2
Nc1nc(N2CC(F)(F)C[C@H]2c2nc3cccc(Cl)c3c(=O)n2-c2ccccc2)c2nc[nH]c2n1 | 11
N#Cc1c(N)ncnc1N1CC2(CC2)C[C@H]1c1nc2cccc(Cl)c2c(=O)n1-c1ccccc1 | 23

1 = Nc1nc(N2[C@H](c3nc4cccc(Cl)c4c(=O)n3-c3ccccc3)C[C@@H]3CCCC[C@@H]32)c2nc[nH]c2n1
2 = C=C1C[C@@H](c2nc3cccc(Cl)c3c(=O)n2-c2ccccc2)N(c2nc(N)nc3[nH]cnc23)C1
Larger number for inhibition: 1 , or 2 ? Your answer should be the label attached to the chosen record. 2

a = C=CCO[C@@H]1C[C@@H](c2nc3cccc(Cl)c3c(=O)n2-c2ccccc2)N(c2ncnc3[nH]cnc23)C1
b = O=c1c2c(Cl)cccc2nc([C@@H]2C[C@@H]3CCCC[C@@H]3N2c2nc(Cl)nc3[nH]cnc23)n1-c1ccccc1
Larger number for inhibition: a , or b ? Your answer should be the label attached to the chosen record. a

I = N#Cc1c(N)ncnc1N1CC(F)(F)C[C@H]1c1nc2cccc(Cl)c2c(=O)n1-c1ccccc1
II = O=c1c2c(Cl)cccc2nc([C@@H]2CC3(CC3)CN2c2ncnc3[nH]ccc23)n1-c1ccccc1
Lowest inhibition? choose I or II Your answer should be the label attached to the chosen record. II

P = N#Cc1cccnc1N1[C@H](c2nc3cccc(Cl)c3c(=O)n2-c2ccccc2)C[C@@H]2CCCC[C@@H]21
Q = C=C1C[C@@H](c2nc3cccc(Cl)c3c(=O)n2-c2ccccc2)N(c2ncnc3[nH]cnc23)C1
R = C=CCO[C@@H]1C[C@@H](c2nc3cccc(Cl)c3c(=O)n2-c2ccccc2)N(c2ncnc(N)c2C#N)C1
Rank the items in ascending order with respect to inhibition. To answer, arrange all of the labels according to the requested order. P, R, Q
(P: -1%, R: 17%, Q: 28%)

###

Details: human, microsomes, 10 µM
Measurement Kind: CLH (mL/min/g)

A selection of reference data follows.
C[C@H]1CC[C@@H](c2nc3cccc(Cl)c3c(=O)n2N2CCOCC2)N1c1ncnc(N)c1C#N | 12.6
N#Cc1c(N)ncnc1N1CC2(CC2)C[C@H]1c1nc2cccc(Cl)c2c(=O)n1-c1ccccc1 | 27.6
C=CCO[C@@H]1C[C@@H](c2nc3cccc(Cl)c3c(=O)n2-c2ccccc2)N(c2ncnc(N)c2C#N)C1 | 767
C[C@H]1CC[C@@H](c2nc3cccc(Cl)c3c(=O)n2-c2ccccc2)N1c1ncnc(N)c1C#N | 22.6
C[C@H]1CC[C@@H](c2nc3cccc(Cl)c3c(=O)n2-c2cccc(F)c2)N1c1ncnc2[nH]cnc12 | 5.2
N#Cc1c(N)ncnc1N1[C@H](c2nc3cccc(F)c3c(=O)n2-c2cc(F)cc(F)c2)C[C@@H]2CCCC[C@@H]21 | 2.4

P = C=C1C[C@@H](c2nc3cccc(Cl)c3c(=O)n2-c2ccccc2)N(c2ncnc(N)c2C#N)C1
Q = N#Cc1c(N)ncnc1N1[C@H](c2nc3cccc(Cl)c3c(=O)n2-c2cccc(F)c2)C[C@@H]2CCCC[C@@H]21
R = C[C@H]1CC[C@@H](c2nc3cccc(Cl)c3c(=O)n2-c2ccccc2)N1c1nc(N)nc2[nH]cnc12
Rank the items in ascending order with respect to CLH. To answer, arrange all of the labels according to the requested order. R, Q, P
(R: 3.8 mL/min/g, Q: 10 mL/min/g, P: 103.8 mL/min/g)

###

Target: Phosphatidylinositol 4,5-bisphosphate 3-kinase catalytic subunit delta isoform (Homo sapiens, UniProt O00329)
Sequence (O00329 whole entry): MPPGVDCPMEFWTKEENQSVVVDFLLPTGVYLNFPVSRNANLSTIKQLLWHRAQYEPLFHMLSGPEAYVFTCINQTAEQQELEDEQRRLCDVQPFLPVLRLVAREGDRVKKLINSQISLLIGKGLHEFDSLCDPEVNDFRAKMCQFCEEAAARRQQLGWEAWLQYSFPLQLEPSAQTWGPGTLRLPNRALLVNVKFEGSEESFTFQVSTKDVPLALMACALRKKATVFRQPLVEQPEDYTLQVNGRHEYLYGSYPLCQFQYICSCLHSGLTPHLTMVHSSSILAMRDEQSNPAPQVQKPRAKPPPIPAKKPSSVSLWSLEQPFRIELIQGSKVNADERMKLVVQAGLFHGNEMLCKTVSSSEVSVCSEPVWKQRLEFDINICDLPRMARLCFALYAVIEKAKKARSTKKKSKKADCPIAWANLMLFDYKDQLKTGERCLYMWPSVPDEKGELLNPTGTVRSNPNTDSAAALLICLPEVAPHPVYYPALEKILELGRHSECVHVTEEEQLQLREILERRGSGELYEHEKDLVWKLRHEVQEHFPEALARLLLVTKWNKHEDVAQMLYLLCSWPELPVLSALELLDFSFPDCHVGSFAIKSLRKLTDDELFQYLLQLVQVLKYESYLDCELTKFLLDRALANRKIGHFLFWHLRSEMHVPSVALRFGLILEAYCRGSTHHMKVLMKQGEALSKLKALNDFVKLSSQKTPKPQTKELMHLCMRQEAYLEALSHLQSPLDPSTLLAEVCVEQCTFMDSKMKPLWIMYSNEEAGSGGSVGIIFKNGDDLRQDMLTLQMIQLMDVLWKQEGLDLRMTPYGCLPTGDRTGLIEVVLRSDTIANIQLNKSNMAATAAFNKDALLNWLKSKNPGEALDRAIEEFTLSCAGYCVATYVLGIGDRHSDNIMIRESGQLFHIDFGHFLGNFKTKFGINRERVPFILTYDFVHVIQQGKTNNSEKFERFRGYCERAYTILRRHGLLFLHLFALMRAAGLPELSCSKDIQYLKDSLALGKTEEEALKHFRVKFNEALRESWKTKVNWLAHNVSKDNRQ
Assay: Inhibition of PI3Kdelta in anti-IgM-stimulated human Raji cells assessed as reduction in AKT phosphorylation at S473 residue incubated for 30 mins
Type: cell-based
Measurement Kind: IC50 (nM)
Please give a number only; it is taken to be in nM.

I would be grateful if you could share the reported IC50 for `C[C@H]1CC[C@@H](c2nc3cccc(Cl)c3c(=O)n2-c2cccc(F)c2)N1c1ncnc2[nH]cnc12` . 24.7
